The entries below are paired with their reported kon.
Target: T1, human IL-36α(R12), truncated (human, UniProt Q9UHA7 6-158)
T1 construct: Untagged after removal of the His-SUMO tag; also called hIL-36alpha
T1 chain: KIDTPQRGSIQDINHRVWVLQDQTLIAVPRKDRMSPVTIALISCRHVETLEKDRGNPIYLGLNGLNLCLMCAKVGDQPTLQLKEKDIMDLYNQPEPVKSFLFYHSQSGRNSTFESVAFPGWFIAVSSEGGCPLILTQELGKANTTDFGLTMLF
Test: SPR, Biacore T200, antibody on chip, IL-36 as analyte, 1:1 Langmuir fit
# number only, unit M⁻¹ s⁻¹ dropped from output

binder	kon, M⁻¹ s⁻¹
144D666C (antibody, V domains shown, Mouse monoclonal from hybridoma; mouse IgG heavy and lambda light chain) VH: EVQLQQSGAELVKPGASVKLTCTASGFNIKDTYIYWVKQRPAQGLEWIGRIDPANAYTKFDPKFQGKATLTADTSSNTAYLQLSSLTSEDTAVYYCTRFHWYGSSFFFDYWGQGTTLTVSS VL: QAVVTQESALTTSPGETVTLTCRSSTGAVTTSNYANWVQEKPDHLFTGLIGGTDNRPPGVPARFSGSLIGDKAALTITGAQTEDEAIYFCALWYSNLWVFGGGTKLTVL	102000
chimeric m/h 144D464A (antibody, human IgG1, lambda, V domains shown, Mouse VH/VL joined to human IgG1 constant and human Ig lambda (IGLC2) constant; also called chimeric mouse/human (m/h) 144D464A antibody) VH: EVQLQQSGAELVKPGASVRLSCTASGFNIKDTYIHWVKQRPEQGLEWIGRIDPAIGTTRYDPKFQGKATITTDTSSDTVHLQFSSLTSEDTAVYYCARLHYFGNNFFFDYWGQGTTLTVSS VL: QAVVTQESALTTSPGEAVTLTCRSSSGAVTTSNYANWVQEKPDHLFAGLIGGTNDRAPGVPARFSGSLIGDKAALTITGAQTEDEAIYFCALWFSNHWVFGGGTKLTVLG	142000

Now for a further binder.
Q. Return reported kon; argument: 144D464A (antibody, V domains shown, Mouse monoclonal from hybridoma; mouse IgG heavy and lambda light chain; also called mouse antibody 144D464A) VH: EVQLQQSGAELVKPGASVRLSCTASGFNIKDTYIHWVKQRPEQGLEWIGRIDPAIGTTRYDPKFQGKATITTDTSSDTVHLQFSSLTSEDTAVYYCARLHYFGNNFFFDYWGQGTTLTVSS VL: QAVVTQESALTTSPGEAVTLTCRSSSGAVTTSNYANWVQEKPDHLFAGLIGGTNDRAPGVPARFSGSLIGDKAALTITGAQTEDEAIYFCALWFSNHWVFGGGTKLTVL
A. 122000
